target-of-assay: T. brucei PKAR-PKAC1 holoenzyme (Trypanosoma brucei, UniProt Q9GU80)
protocol: biochemical
Type: biochemical
readout: EC50 (nM)
Respond with the bare value in nM.

Prompt line: # lookup: EC50 of N#Cc1cn([C@@H]2O[C@H](CO)[C@@H](O)[C@H]2O)c2ncnc(O)c12 [7-CN-7-C-Ino, 7-Cyano-7-deazainosine]
Response line: 6.5
